Catalogue of pIC50 values
target_system: Phosphatidylinositol 4,5-bisphosphate 3-kinase catalytic subunit alpha isoform (Homo sapiens)
Sequence (P42336 whole entry, canonical isoform): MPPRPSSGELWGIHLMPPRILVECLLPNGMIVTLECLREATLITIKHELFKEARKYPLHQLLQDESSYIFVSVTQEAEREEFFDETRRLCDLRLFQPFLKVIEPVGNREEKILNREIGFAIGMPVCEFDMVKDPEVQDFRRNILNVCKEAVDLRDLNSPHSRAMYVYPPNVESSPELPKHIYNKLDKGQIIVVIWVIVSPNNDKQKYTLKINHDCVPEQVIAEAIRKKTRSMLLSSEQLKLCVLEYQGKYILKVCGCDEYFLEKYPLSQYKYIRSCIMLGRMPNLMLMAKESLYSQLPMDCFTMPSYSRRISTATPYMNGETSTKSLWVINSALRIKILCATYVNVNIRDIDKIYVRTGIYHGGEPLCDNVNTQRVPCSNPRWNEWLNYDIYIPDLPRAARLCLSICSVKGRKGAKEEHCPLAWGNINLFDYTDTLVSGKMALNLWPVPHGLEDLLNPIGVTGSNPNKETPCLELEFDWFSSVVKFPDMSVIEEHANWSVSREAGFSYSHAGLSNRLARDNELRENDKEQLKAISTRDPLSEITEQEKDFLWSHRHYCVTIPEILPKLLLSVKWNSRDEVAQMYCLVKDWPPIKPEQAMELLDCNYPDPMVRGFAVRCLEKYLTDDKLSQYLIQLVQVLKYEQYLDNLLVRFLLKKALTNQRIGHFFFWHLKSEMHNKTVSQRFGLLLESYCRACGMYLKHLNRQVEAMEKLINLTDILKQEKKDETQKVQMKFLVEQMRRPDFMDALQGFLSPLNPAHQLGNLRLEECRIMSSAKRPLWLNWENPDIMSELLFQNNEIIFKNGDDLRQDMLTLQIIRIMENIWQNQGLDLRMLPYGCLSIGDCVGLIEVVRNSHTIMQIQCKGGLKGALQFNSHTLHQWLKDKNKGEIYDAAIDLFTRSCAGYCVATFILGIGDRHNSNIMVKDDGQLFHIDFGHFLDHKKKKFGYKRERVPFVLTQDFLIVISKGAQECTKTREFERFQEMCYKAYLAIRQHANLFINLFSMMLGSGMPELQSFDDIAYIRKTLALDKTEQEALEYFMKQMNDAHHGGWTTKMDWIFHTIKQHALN
assay_overview: Inhibition of PI3Kalpha (unknown origin) using PIP2:3PS peptide as substrate preincubated for 15 mins followed by ATP addition at Km concentration and further incubated for 150 mins by ADP-Glo assay
Reminder that pIC50 means the negative base-10 logarithm of the concentration expressed in mol/L.

Answered cases to consult:
CNC(=O)[C@H](C)Cn1cnc2ccc(-c3cnc(OC)c(NS(=O)(=O)c4ccc(Cl)cc4Cl)c3)cc2c1=O    8.68
COc1ncc(-c2ccc3ncn(C[C@@H](C)C(=O)NCC(C)C)c(=O)c3c2)cc1NS(=O)(=O)c1ccc(F)cc1Cl    8.10
CCC(CC)NC(=O)[C@H](C)Cn1cnc2ccc(-c3cnc(OC)c(NS(=O)(=O)c4ccc(F)cc4Cl)c3)cc2c1=O    7.71
CNC(=O)[C@H](C)Cn1cnc2ccc(-c3cnc(C)c(NS(=O)(=O)c4ccc(F)cc4Cl)c3)cc2c1=O    8.52
CNC(=O)[C@@H](C)Cn1cnc2ccc(-c3cnc(OC)c(NS(=O)(=O)c4ccc(F)cc4Cl)c3)cc2c1=O    8.64

Input line: Annotate the compound CCNC(=O)[C@H](C)Cn1cnc2ccc(-c3cnc(OC)c(NS(=O)(=O)c4ccc(F)cc4Cl)c3)cc2c1=O with its measured pIC50.
Output line: 8.46

Input line: Please supply the value of reported pIC50 for the item CCN(CC)C(=O)[C@H](C)Cn1cnc2ccc(-c3cnc(OC)c(NS(=O)(=O)c4ccc(F)cc4Cl)c3)cc2c1=O
Output line: 7.59

Input line: Please report pIC50 for the following compound: CNC(=O)[C@H](C)Cn1cnc2ccc(-c3cnc(CO)c(NS(=O)(=O)c4ccc(F)cc4Cl)c3)cc2c1=O
Output line: 7.52
